Sequence of the target: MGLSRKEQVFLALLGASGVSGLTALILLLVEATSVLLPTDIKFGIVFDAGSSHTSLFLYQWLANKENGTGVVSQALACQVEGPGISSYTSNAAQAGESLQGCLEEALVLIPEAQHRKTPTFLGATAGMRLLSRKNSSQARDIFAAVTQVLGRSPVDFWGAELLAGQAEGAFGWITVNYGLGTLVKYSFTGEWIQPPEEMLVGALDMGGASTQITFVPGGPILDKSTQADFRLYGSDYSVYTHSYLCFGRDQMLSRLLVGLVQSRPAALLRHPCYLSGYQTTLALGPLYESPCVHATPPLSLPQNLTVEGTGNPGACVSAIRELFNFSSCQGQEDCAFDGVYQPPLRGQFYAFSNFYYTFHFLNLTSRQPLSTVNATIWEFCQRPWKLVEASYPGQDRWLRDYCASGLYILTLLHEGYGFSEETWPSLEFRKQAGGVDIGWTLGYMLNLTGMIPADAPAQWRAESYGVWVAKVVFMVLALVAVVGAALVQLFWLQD
metric: pIC50
Worth noting: pIC50 values are minus log10 of concentrations stated in mol/L.

For the molecule Cc1cc(Nc2ncc(Cl)c(Nc3ccccc3S(=O)(=O)C(C)C)n2)c(OC(C)C)cc1C1CCNCC1 [ceritinib, Ceritinib] , report pIC50.
4.69

----------
biological target: human CD39 (Homo sapiens); assay: Inhibition type experiments, malachite green assay on recombinant human CD39
Sequence (P49961 whole entry): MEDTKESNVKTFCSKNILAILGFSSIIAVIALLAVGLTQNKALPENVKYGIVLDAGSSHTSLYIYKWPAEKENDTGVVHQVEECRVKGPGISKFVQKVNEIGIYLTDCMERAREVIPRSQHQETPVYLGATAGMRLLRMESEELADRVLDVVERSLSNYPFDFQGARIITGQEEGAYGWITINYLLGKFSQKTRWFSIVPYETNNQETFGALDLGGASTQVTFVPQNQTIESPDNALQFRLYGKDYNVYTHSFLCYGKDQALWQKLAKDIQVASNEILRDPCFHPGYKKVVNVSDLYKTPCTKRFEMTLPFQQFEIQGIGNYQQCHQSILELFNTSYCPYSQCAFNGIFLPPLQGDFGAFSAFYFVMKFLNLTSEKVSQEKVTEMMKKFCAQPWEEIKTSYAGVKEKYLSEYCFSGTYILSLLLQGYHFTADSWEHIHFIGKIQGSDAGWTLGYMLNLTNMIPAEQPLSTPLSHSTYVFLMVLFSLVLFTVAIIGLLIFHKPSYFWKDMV
metric: pKi
Worth noting: pKi values are minus log10 of concentrations stated in mol/L.

For the molecule `Cc1cc(Nc2ncc(Cl)c(Nc3ccccc3S(=O)(=O)C(C)C)n2)c(OC(C)C)cc1C1CCNCC1` , report pKi.
4.96

----------
Biological target: NPP4 (Homo sapiens, UniProt Q9Y6X5)
Sequence (Q9Y6X5 16-407 limits assumed): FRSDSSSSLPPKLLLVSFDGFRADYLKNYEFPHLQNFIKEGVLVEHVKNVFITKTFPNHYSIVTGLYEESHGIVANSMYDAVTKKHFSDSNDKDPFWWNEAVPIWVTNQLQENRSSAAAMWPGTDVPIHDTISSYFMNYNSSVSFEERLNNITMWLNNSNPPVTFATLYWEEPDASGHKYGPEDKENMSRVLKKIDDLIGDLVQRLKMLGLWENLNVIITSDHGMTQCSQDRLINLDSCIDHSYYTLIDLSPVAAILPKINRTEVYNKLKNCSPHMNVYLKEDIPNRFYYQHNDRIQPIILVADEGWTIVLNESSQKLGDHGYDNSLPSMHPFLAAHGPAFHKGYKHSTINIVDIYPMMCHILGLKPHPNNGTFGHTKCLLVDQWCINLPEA
metric: IC50

For the molecule Cc1cc(Nc2ncc(Cl)c(Nc3ccccc3S(=O)(=O)C(C)C)n2)c(OC(C)C)cc1C1CCNCC1 [ceritinib, Ceritinib] , report IC50.
> 50 µM

----------
Target: NPP5 (Homo sapiens, UniProt Q9UJA9)
Sequence (Q9UJA9 25-431 limits assumed): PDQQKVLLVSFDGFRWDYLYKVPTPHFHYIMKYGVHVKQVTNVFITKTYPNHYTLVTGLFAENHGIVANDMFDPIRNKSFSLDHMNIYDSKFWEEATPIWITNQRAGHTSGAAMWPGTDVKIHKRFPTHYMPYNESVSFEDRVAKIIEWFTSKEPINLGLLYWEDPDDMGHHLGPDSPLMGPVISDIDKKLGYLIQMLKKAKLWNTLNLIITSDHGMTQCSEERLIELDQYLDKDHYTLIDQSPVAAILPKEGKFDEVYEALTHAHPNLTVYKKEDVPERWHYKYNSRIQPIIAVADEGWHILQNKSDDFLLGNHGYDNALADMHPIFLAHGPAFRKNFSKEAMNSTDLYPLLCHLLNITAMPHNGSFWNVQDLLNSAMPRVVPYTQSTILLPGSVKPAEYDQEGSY
pIC50: −log10 of the molar value.
metric: pIC50

For the compound `Cc1cc(Nc2ncc(Cl)c(Nc3ccccc3S(=O)(=O)C(C)C)n2)c(OC(C)C)cc1C1CCNCC1` , report pIC50.
< 4.30
